tested on: M14; assay: NCI tumour cell line growth inhibition, 48 h
Calls of active or inactive are those of the source. No stated cut-off is given here; in the data, active = GI50 up to about 1.1 µM and inactive = higher.
Select the matching outcome among yes (1) = active, no (0) = inactive

Recorded results for 5 compounds are shown here.
INSERT INTO results (compound, assay_target, assigned_class) VALUES
  ('CCNC(=O)C1CCCN1C(=O)C(CCCN=C(N)N)NC(=O)C(CC(C)C)NC(=O)C(Cc1c[nH]c2ccccc12)NC(=O)C(Cc1ccc(O)cc1)NC(=O)C(CO)NC(=O)C(Cc1c[nH]c2ccccc12)NC(=O)C(Cc1c[nH]cn1)NC(=O)C1CCC(=O)N1 (centres undefined)', 'M14', 'no (0)'),
  ('CCOP(=O)(OCC)C(Nc1ccc(Cl)cc1)c1ccc(F)cc1 (centres undefined)', 'M14', 'no (0)'),
  ('O=C(C[n+]1ccc2ccccc2c1)c1ccc2ccc3ccccc3c2c1', 'M14', 'no (0)'),
  ('CCOC(=O)CN1C(=O)c2c(NC(=O)C(=O)O)cccc2S1(=O)=O', 'M14', 'no (0)'),
  ('C=C1CN=C(Nc2ccc(Cl)cc2)S1', 'M14', 'no (0)');

### Prompt Can you look up the reported call for "O=C(Nc1cc(Cl)ccc1Cl)c1cc2ccccc2oc1=O" for me?
### Response no (0)

### Prompt Same question, COC(=O)C1CCC(=O)N1C(c1ccc(OC)cc1)c1cc(OC)c(OC)c(OC)c1 (centres undefined) this time
### Response yes (1)

### Prompt Check CCCCCCCCCCCC(=O)N(CCCCCCCCC)CC(O)C(O)C(OC1OC(CO)C(O)C(O)C1O)C(O)CO (centres undefined) too.
### Response no (0)

### Prompt Also check "C=C[C@@H]1C[C@]2(C(=O)OC)Cc3nc4ccccc4nc3CC(C(=O)OC)=C2O1"
### Response no (0)

----------
test system: OVCAR-4; experiment: NCI tumour cell line growth inhibition, 48 h
Calls of active or inactive are those of the source. No stated cut-off is given here; in the data, active = GI50 up to about 1.1 µM and inactive = higher.
measurement.label: GI50

Worked cases, answers included:
INSERT INTO results (compound, assay_target, result) VALUES
  ('CC(=O)NC(Cc1ccccc1)NC(=O)O (stereo not drawn)', 'OVCAR-4', '> 100 µM (inactive)'),
  ('COc1cccc2c1C1(O)C2CCCCCCCCCC12OCCCO2 (stereo not drawn)', 'OVCAR-4', '> 100 µM (inactive)'),
  ('C[B@@-]1(c2ccc(C(F)(F)F)cc2)N[C@@H](Cc2ccccc2)C(=O)O1', 'OVCAR-4', '> 100 µM (inactive)'),
  ('Cc1coc2c1C(=O)C(=O)c1ccccc1-2', 'OVCAR-4', '1.82 µM (inactive)'),
  ('COc1ccc2c(c1)OC(c1cccnc1)C(c1ccccc1)C2=O (stereo not drawn)', 'OVCAR-4', '> 100 µM (inactive)'),
  ('CCCCCOc1ccc(/C=N\c2ccc(-c3ccc(/N=C\c4ccc(OCCCCC)cc4)c(OC)c3)cc2OC)cc1', 'OVCAR-4', '> 31.6 µM (inactive)'),
  ('CC(C)OP(=O)(OC(C)C)C(C(F)(F)F)C(F)(F)F', 'OVCAR-4', '> 100 µM (inactive)'),
  ('N#CC(C#N)=Cn1c(=S)[nH]c2ccccc21', 'OVCAR-4', '> 100 µM (inactive)');

### Prompt // lookup GI50 for "CN(C)CCNc1c([N+](=O)[O-])sc2ccc(Cl)cc12"
### Response 12.6 µM (inactive)

### Prompt Please give the result for CC(=O)OC1CC2(O)C(CCC3(C)C(c4ccc(=O)oc4)CCC32O)C2(C)CCC(O)C=C12 (stereo not drawn) too.
### Response 0.0206 µM (active)
